# Tested on: PC-3 prostate
# EXPERIMENT NOTES: NCI-60 one-dose screen, 48 h (100 = growth as untreated, 0 = no growth, -100 = all killed)
# DETAILS: 10 µM unless noted
About 83,000 compounds went through this panel and 20% of them were active in at least one assay; those are over-represented in the sample as a whole.
growth listing for selected compounds.
MEASUREMENT KIND: growth (%)

- CC(=O)C1=C(O)C=C2Oc3c(C(=O)/C=C/c4c(Cl)cccc4Cl)c(O)c(C)c(O)c3[C@]2(C)C1=O: -3.69
- O=C(CN1CCN(c2cc3c(cc2F)c(=O)c(C(=O)O)cn3C2CC2)CC1)Nc1nc(-c2ccc(Cl)cc2)cs1: 17.7
- COc1ccc(-n2cc(-c3ccccc3)c3c(SCC(=O)N/N=C/c4ccc([N+](=O)[O-])cc4)ncnc32)cc1: 96.4
- COc1ccccc1N1CCN(CCn2c(=O)c3c(c4ccccc4n3C)n(C)c2=O)CC1: 84.4
- C=C1CCC2C3(C)COC(C)(C)OC3CCC2(C)C1C/C=C1/C(=O)OCC1OC(C)=O (stereo not given): 56.4

----------
# Test system: A498 renal
# EXPERIMENT NOTES: NCI-60 one-dose screen, 48 h (100 = growth as untreated, 0 = no growth, -100 = all killed)
# DETAILS: 10 µM unless noted
This is part of a sample that, as a whole, favours compounds with a hit. Of some 83,000 tested, about 20% had one in any assay. The source made the active and inactive calls. Rule for the calls: active = growth percent below 10; inactive = the rest.
MEASUREMENT KIND: growth

* CC1=C(NCCN2CCCC2)C(=O)c2c(OCc3cccc(Cl)c3)cccc2C1=O | 47.4% (inactive)
* O=C(O)c1cccnc1Br | 104% (inactive)
* COc1ccc(-c2cnoc2-c2cc(OC)c3c(c2)OCCO3)cc1 | -8.01% (active)
* NS(=O)(=O)N(c1cc(C(F)(F)F)cc(C(F)(F)F)c1)C1CCN(Cc2ccc(F)cc2)CC1 | 76.3% (inactive)
* CS(=O)(CCCCN=C=S)=NC(=O)c1c(F)c(F)c(F)c(F)c1F (stereo unspecified) | 88.8% (inactive)
* CCOC(=O)c1c2c(n3ccc(NC(=O)CCN4CCOCC4)cc13)C(=O)c1ncccc1C2=O | 56.2% (inactive)
* O=C1C=CC(Nc2ccccc2[N+](=O)[O-])C1Nc1ccccc1[N+](=O)[O-] (stereo unspecified) | 96.8% (inactive)
* C=C(C[n+]1ccccc1)[C@@H]1CC[C@]2(C(=O)OC)CC[C@]3(C)[C@H](CC[C@@H]4[C@@]5(C)CC[C@H](O)C(C)(C)[C@@H]5CC[C@]43C)[C@@H]12 | 123% (inactive)
* Cc1ccc(-c2nc(/C=N/Nc3cc(C)nc4ccc(Br)cc34)c(C)o2)cc1 | 86.6% (inactive)
* Cc1ccc(Nc2c(C(N)=O)cnc3ccc(-c4csc(N)n4)cc23)cc1 | 73.3% (inactive)
* Oc1ccc(Nc2nccc(-c3ccc4ccccc4c3)n2)cc1 | 21.8% (inactive)
* C=C1C(=O)O[C@H]2[C@H]1CC/C(Cn1cc(Cc3c[nH]c4ccccc34)nn1)=C\CC[C@@]1(C)O[C@@H]21 | 64.3% (inactive)
* COc1cc2nc3cc([N+](=O)[O-])ccc3c(NCCCNCC(C)(C)O)c2cc1OC | -82.2% (active)
* O=C(CO[N+](=O)[O-])Nc1ccc(C(=O)/C=C/c2ccc3c(c2)OCO3)cc1 | 107% (inactive)
* NC(N)=Nc1ccc(S(=O)(=O)O)cc1 | 97.8% (inactive)
* Cc1ccc2c(NCCCN(C)C)c3c(C)nn(C)c3nc2c1 | 28.3% (inactive)
* Cc1cc(OCc2ccc(C(F)(F)F)cc2)c2c(c1)C(=O)C=C(NCCN1CCCC1)C2=O | 67.8% (inactive)
* COc1ccc(S(=O)(=O)NCCCNc2nccc(-c3c(-c4cccc(N)c4)nc4sccn34)n2)cc1 | 91.2% (inactive)
* Cn1cc(-c2nc(-c3c[nH]c4ccccc34)cs2)c2cccnc21 | -0.249% (active)
* COc1cc(C2CC(=O)c3c(C)nn(-c4nc5ccccc5[nH]4)c3C2)cc(OC)c1OC (stereo unspecified) | 56.5% (inactive)
* CC(=O)C1=C(O)C=C2Oc3c(C(=O)/C=C/c4ccccc4)c(O)c(C)c(O)c3[C@]2(C)C1=O | 14.3% (inactive)
* COc1cc(/C=C2\CN(C(=O)CCN3CCC(=NO)CC3)C/C(=C\c3cc(OC)c(OC)c(OC)c3)C2=O)cc(OC)c1OC | -87.2% (active)
* COc1ccc(-n2c(C)nc3c(c(C)nn3-c3ccccc3)c2=O)cc1 | -27.8% (active)
* COc1ccc(/C=C/C(=O)c2ccc(NC(=O)c3cc4cc5ccccc5nc4s3)cc2)cc1OC | 83.1% (inactive)
* O=c1c2cccc3c(Nc4ccccn4)ccc(c32)c2nc3ccccc3n12 | 92.3% (inactive)
* CCOC(=O)C12CCCC1=CC(=O)CC2 (stereo unspecified) | 110% (inactive)
* COc1cc(/C=N\NC(=O)CN2CCN(c3cc4c(cc3F)c(=O)c(C(=O)N/N=C/c3ccc(O)c(OC)c3)cn4C3CC3)CC2)ccc1O | 85.3% (inactive)
* CC(=O)C1=C(O)C=C2Oc3c(C(=O)/C=C/c4cc(Cl)cc(Cl)c4)c(O)c(C)c(O)c3[C@]2(C)C1=O | -57.7% (active)
* CC1=NNC(=O)C1C (stereo unspecified) | 88.6% (inactive)
* COc1ccc(C(=O)COc2ccc(/C=C3\Oc4ccc(Cl)cc4C3=O)cc2)cc1 | 109% (inactive)
* O=C1/C(=C/c2ccc(F)cc2)CN(C(=O)CCN2CCC(=NO)CC2)C/C1=C\c1ccc(F)cc1 | 24.9% (inactive)

----------
# Test system: MCF7 breast
# EXPERIMENT NOTES: NCI-60 one-dose screen, 48 h (100 = growth as untreated, 0 = no growth, -100 = all killed)
# DETAILS: 10 µM unless noted
# Method: Growth inhibition of the MCF7 human tumor cell line is measured as a screen for anti-cancer activity. Cells are grown in 96 well plates and exposed to the test compound for 48 hours. Compounds are tested at a single concentration, which is 10^-5 M for most compounds. The reported endpoint is percent growth (GI% or GIPRCNT), where numbers from 0 - 100% represent growth inhibition, and numbers from -100% - 0 represent cell death. For example, a value of 40 represents 60% growth inhibition. […]
About 83,000 compounds went through this panel and 20% of them were active in at least one assay; those are over-represented in the sample as a whole.
MEASUREMENT KIND: growth (%)

• O=C1C(=O)N(CCCCn2cc(CO)nn2)c2ccccc21 = 100
• Nc1nc2ccc(-c3nc4ccc5[nH]ncc5c4c4c3CCC4)cc2s1 = 13
• CC[C@H](CO)Nc1nc(NCc2ccccc2)n2ncc(C(C)C)c2n1 = 2.6
• C=C(C[n+]1ccccc1)[C@@H]1CC[C@]2(C(=O)OC)CC[C@]3(C)[C@H](CC[C@@H]4[C@@]5(C)CC[C@H](O)C(C)(C)[C@@H]5CC[C@]43C)[C@@H]12 = 97.7
• Nc1cccc(-c2nc3sccn3c2-c2ccnc(NCCCNS(=O)(=O)c3ccc(C(F)(F)F)cc3)n2)c1 = 2.11
• COc1cnc2c(c1)C(=O)c1c-2n(CCCN2CCN(C)CC2)c(=O)c2cc([N+](=O)[O-])ccc12 = -40.1
• O=C(/C=C\c1cccc([N+](=O)[O-])c1)c1ccccc1 = -9.56
• Fc1ccc(Cc2ccc(F)cc2)cc1 = 99

----------
# Tested on: SF-295 CNS
# EXPERIMENT NOTES: NCI-60 one-dose screen, 48 h (100 = growth as untreated, 0 = no growth, -100 = all killed)
# DETAILS: 10 µM unless noted
The panel holds about 83,000 compounds, 20% with a hit somewhere; the sample as a whole holds those more often. The source made the active and inactive calls. Rule for the calls: active = growth percent below 10; inactive = the rest.
Listed compounds paired with reported growth
MEASUREMENT KIND: growth

- Nc1ccc(Nc2nccc(-c3ccc4ccccc4c3)n2)cc1: 64.8% (inactive)
- O=c1c2c3c(sc2n2c(CCl)nnc2n1Cc1ccccc1)CCCC3: 126% (inactive)
- Oc1ccc(Nc2nccc(-c3ccc4ccccc4c3)n2)cc1: 61.4% (inactive)
- NS(=O)(=O)N(c1cc(C(F)(F)F)cc(C(F)(F)F)c1)C1CCN(Cc2ccc(F)cc2)CC1: 81.6% (inactive)
- Cc1ccc2cnc(N)c(C#Cc3cncc(C(=O)Nc4ccc(CN5CCN(C)CC5)c(C(F)(F)F)c4)c3)c2c1: -87.2% (active)
- Cc1[nH]n(-c2ccccc2)c2nc3nncc3c(-c3ccc(Cl)cc3)c12: 105% (inactive)
- Nc1nc2ccc(-c3nc4ccc5[nH]ncc5c4c4c3CCC4)cc2s1: 13.6% (inactive)
- CC(C)c1c(C(=O)Nc2ccccc2)c(-c2ccccc2)c(-c2ccc(F)cc2)n1CC[C@@H]1CC=CC(=O)O1: 82.3% (inactive)
- COc1ccc(C(=O)/C=C/c2c[n+](=O)c3ccc(F)cc3n2[O-])cc1: 102% (inactive)
- CS(=O)CCCCCN=C=S (stereo unspecified): 51% (inactive)
- CCOC(=O)C(CC)n1c(=O)c2cc(OC)c(OC)cc2c2cnc3[nH]ccc3c21 (stereo unspecified): 65% (inactive)
- CS(=O)(CCCCN=C=S)=NC(=O)c1c(F)c(F)c(F)c(F)c1F (stereo unspecified): 97.8% (inactive)
- C[C@H](CCC(=O)O)[C@H]1CC[C@H]2[C@@H]3CC[C@@H]4/C(=C\c5ccco5)C(=O)/C(=C\c5ccco5)C[C@]4(C)[C@H]3CC[C@]12C: 70.6% (inactive)
- O=S(=O)(NCCCNc1cc(-c2cn(-c3ccccc3)nc2-c2cccc(O)c2)ccn1)c1ccccc1: 11% (inactive)
- Cc1ccc2c(c1)C(=O)c1c-2c(OCCCN(C)C)nc2ccccc12: 60% (inactive)
- C/C(Cc1ccc(Cl)cc1)=C(\c1ccc(OCCN2CCCCCC2)cc1)c1ccc(OC(=O)Cc2ccccc2)cc1: 90.4% (inactive)
